// provenance: patent US20100292083A1

Molecular target: T1, human IL6R (human, UniProt P08887 20-358, limits assumed)
T1 construct: Antigen of the Biacore experiments
T1 sequence (looked up): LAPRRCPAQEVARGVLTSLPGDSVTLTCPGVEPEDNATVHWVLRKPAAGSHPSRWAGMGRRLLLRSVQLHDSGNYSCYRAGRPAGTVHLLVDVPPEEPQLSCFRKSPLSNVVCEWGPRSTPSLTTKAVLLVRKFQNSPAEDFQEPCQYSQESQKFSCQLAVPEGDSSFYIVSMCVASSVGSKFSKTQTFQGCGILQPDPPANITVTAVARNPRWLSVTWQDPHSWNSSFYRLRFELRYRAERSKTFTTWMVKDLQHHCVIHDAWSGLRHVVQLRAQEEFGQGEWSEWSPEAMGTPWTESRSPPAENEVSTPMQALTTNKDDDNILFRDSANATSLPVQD
Experiment: SPR (Biacore), purified Nanobody
Is kon at least 500000 M⁻¹ s⁻¹? Then Met. If not, Not met.

INSERT INTO results (binder, answer_label) VALUES
  ('IL6R65PMP7G8 (VHH, Also expressed in E. coli and purified via IMAC) VHH: EVQLVESGGGLVQPGGSLRLSCAASGSTFRINVMAWYRQAPGKGRELVAGVINDGSTTYADSVKGRFTISRDNAKNTLYLQMNSLRPEDTAVYYCAFVTTNSDYDLGRDYWGQGTLVTVSS', 'Not met'),
  ('IL6R65PMP7D6 (VHH, Also expressed in E. coli and purified via IMAC) VHH: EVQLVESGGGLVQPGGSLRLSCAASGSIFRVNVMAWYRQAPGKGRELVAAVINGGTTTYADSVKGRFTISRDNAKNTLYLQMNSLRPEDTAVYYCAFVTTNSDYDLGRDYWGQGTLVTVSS', 'Met'),
  ('IL6R65PMP7C4 (VHH, Also expressed in E. coli and purified via IMAC) VHH: EVQLVESGGGLVQPGGSLRLSCAASGTTFRINVMAWYRQAPGKGRELVAGIITNGSTSYADSVKGRFTISRDNAKNTLYLQMNSLRPEDTAVYYCAFVTTNSDYDLGRDYWGQGTLVTVSS', 'Met'),
  ('IL6R65PMP7G7 (VHH, Also expressed in E. coli and purified via IMAC) VHH: EVQLVESGGGLVQPGGSLRLSCAASGTTFKINIMAWYRQAPGKGRELVAGVITGGNTTYADSVKGRFTISRDNAKNTLYLQMNSLRPEDTAVYYCAFVTTNSDYDLGRDYWGQGTLVTVSS', 'Met'),
  ('Nanobody IL6R65 (VHH, also called ILR65) VHH: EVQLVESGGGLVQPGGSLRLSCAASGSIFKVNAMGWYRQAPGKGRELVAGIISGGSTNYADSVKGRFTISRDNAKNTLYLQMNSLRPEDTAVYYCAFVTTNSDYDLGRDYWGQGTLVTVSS', 'Met');

Now let's try a different one.
In: // inclusive: kon at least 500000 M⁻¹ s⁻¹? input: IL6R65PMP7F4 (VHH, Also expressed in E. coli and purified via IMAC) VHH: EVQLVESGGGLVQPGGSLRLSCAASGTTFKVNVMAWYRQAPGKGRELVAGIINGGSTTYADSVKGRFTISRDNAKNTLYLQMNSLRPEDTAVYYCAFVTTNSDYDLGRDYWGQGTLVTVSS
Out: Met
